Molecular target: thrombin (human, UniProt P00734;P00734 328-363;364-622)
Test: microarray sandwich fluorescence

binder | unit abbrev | Kd
GGTTGGTGTGGTTGG (structured_DNA, ten 2'F-ANA, positions lost in text) [sequence 10] | nM | 45
GGTTGGTGTGGTTGG (structured_DNA, 2'F-ANA, positions lost in text) [sequence 4] | nM | 41
GGTTGGTGTGGTTGG (structured_DNA, ten 2'F-ANA, positions lost in text) [sequence 11] | nM | 53
GGTTGGTGTGGTTGG (structured_DNA) [TBA1 control] | nM | 93
GGTTGGTGTGGTTGG (structured_DNA, 2'F-araT, positions lost in text) [sequence 15] | nM | 85
GGTTGGTGTGGTTGG (structured_DNA, 2'F-araT, positions lost in text) [sequence 16] | nM | 117
GGTTGGTGTGGTTGG (structured_DNA, 2'F-ANA at T3, G8, T12; full pattern lost in text) [sequence 1] | nM | 28
